Hey, just so you know, these numbers are from patent US10336675B2.

Target: human vitamin D receptor (VDR) (Homo sapiens, UniProt P11473)
Sequence (P11473 127-423 limits assumed): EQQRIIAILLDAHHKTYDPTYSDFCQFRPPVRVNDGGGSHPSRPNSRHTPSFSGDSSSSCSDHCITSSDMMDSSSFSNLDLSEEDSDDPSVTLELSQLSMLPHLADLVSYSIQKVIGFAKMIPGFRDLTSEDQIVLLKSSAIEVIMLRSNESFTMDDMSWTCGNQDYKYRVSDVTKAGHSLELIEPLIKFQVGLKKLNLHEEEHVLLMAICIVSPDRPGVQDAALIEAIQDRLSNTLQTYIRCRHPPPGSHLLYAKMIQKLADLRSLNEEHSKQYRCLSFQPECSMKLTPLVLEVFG
Assay: Human vitamin D receptor (VDR) agonist activity: GAL4-VDR LBD luciferase transactivation assay in transiently transfected HEK293 cells
Details: VDR LBD-GAL4 DBD fusion, pFR-Luc luciferase reporter, 16 h incubation, read-out: Effective concentrations of half maximal activation (EC50)
Protocol: By way of example, the human vitamin D receptor (VDR) agonist activity of the claimed compounds can be tested using a cell based transactivation assay in an eukaryotic cell line. […] The VDR agonist binding and transactivation is determined by measuring the luciferase luminescence activity. The effective concentration of half maximal activation (EC50) was determined for the VDR agonists by means of dose-response experiments. […]
pEC50: −log10 of the molar value.
Returns yes if the recorded pEC50 is greater than or equal to 8, and no otherwise.

- molecule: "CC/C(=C\\C=C\\C(O)(CC)CC)c1cccc(CCc2ccc(C(O)C(C)C(C)O)cc2)c1 (stereo not shown)"
  assigned.label: "no"
- molecule: "CC/C(=C\\C=C\\C(O)(CC)CC)c1cccc(CCc2ccc(C(O)C(CO)CCCCO)cc2)c1 (stereo not shown) [Comp1, reference compound]"
  assigned.label: "no"
- molecule: "CC/C(=C\\C=C\\C(O)(CC)CC)c1cccc(CCc2ccc(C(O)CC(C)O)cc2)c1 (stereo not shown)"
  assigned.label: "yes"
- molecule: "CC/C(=C\\C=C\\C(O)(CC)CC)c1cccc(CCc2ccc(C(O)C(CO)CCCO)cc2)c1 (stereo not shown)"
  assigned.label: "no"
- molecule: "CC/C(=C\\C=C\\C(O)(CC)CC)c1cccc(CCc2ccc(C(O)C(C)CO)cc2)c1 (stereo not shown)"
  assigned.label: "no"
